Measured values drawn from ChEMBL document CHEMBL5325395 for this set.

Molecular target: Bromodomain-containing protein 3 (Homo sapiens, UniProt Q15059)
Sequence (Q15059 whole entry): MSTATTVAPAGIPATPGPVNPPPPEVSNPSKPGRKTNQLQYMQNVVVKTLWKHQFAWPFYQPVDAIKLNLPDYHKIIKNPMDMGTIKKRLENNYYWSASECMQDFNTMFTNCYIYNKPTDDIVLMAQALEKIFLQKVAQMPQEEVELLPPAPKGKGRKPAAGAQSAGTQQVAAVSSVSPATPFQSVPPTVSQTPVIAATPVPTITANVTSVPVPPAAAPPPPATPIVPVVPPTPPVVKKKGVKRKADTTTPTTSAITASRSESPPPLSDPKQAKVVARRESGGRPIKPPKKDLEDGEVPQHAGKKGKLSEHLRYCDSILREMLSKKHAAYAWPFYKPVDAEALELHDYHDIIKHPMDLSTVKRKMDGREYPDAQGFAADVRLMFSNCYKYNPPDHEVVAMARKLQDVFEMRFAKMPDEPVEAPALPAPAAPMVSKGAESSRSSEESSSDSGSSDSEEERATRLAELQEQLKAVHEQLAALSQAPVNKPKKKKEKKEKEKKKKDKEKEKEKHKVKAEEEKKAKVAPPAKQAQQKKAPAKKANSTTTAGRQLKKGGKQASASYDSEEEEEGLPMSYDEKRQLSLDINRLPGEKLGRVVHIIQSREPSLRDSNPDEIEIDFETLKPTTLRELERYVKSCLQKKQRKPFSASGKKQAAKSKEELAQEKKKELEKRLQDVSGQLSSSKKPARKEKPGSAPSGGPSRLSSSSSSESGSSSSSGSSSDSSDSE
Test: Inhibition of BRD3 bromodomain 1 (unknown origin) by Alphascreen based method
READOUT_KIND: IC50

> print(dat)
                              sample.smiles  reported.result
1  Cc1cc(-c2nc3sc4c(c3c(=O)[nH]2)CCN(C)C4)cc(C)c1OCC(=O)OCc1c(-c2ccccc2)no[n+]1[O-]          > 20 µM

* * *

Tested on: OVCAR-3
Assay: Antiproliferative activity against human OVCAR-3 cells assessed as reduction in cell viability incubated for 24 hrs by CCK8 assay
Assay type: functional, cell-based
Conditions: OVCAR-3, 24 h
pIC50: −log10 of the molar value.
The following molecules are shown together with reported pIC50 values.
READOUT_KIND: pIC50

> print(dat)
                              sample.smiles  bound.sign  reported.result
1  CCOC(=O)N1CCN(/[N+]([O-])=N/Oc2ccc([N+](=O)[O-])cc2[N+](=O)[O-])CC1           <             4.70
2  Cc1cc(-c2nc3sc4c(c3c(=O)[nH]2)CCN(C)C4)cc(C)c1OCCCC(=O)OCc1no[n+]([O-])c1C           =             5.26
3  Cc1cc(-c2nc3sc4c(c3c(=O)[nH]2)CCN(C)C4)cc(C)c1OCCCCO[N+](=O)[O-]           =             4.82
4  Cc1cc(-c2nc3sc4c(c3c(=O)[nH]2)CCN(C)C4)cc(C)c1OCC(=O)OCc1c(-c2ccccc2)no[n+]1[O-]           =             5.57
